Test system: PC-3
Assay: NCI-60 screening, one-dose (10 µM) and five-dose, SRB
Format: cell-based, human
Settings: Homo sapiens; 10 μM; PC-3, Prostate Cancer; read-out: Growth percentage
In this section we review reported activity at 10 µM values for a set of compounds.
Numeric answer only, unit % assumed.

Worked set:
[
  {
    "compound": "CC(=O)c1sc(SCC(=O)N2CCN(c3cc4c(cc3F)c(=O)c(C(=O)O)cn4C3CC3)CC2)nc1C [Compound 4a]",
    "value unit": "%",
    "recorded number": 98.8
  },
  {
    "compound": "Cc1nc(SCC(=O)N2CCN(c3cc4c(cc3F)c(=O)c(C(=O)O)cn4C3CC3)CC2)sc1C(=O)/C=C/c1cccc(Cl)c1 [Compound 4b]",
    "value unit": "%",
    "recorded number": 74.1
  },
  {
    "compound": "Cc1nc(SCC(=O)N2CCN(c3cc4c(cc3F)c(=O)c(C(=O)O)cn4C3CC3)CC2)sc1C(=O)/C=C/c1ccc(Cl)cc1 [Compound 4c]",
    "value unit": "%",
    "recorded number": 100
  }
]

I would be grateful if you could share the reported activity at 10 µM for Cc1nc(SCC(=O)N2CCN(c3cc4c(cc3F)c(=O)c(C(=O)O)cn4C3CC3)CC2)sc1C(=O)/C=C/c1ccc(Br)cc1 [Compound 4f] .
102

What do you get for Cc1nc(SCC(=O)N2CCN(c3cc4c(cc3F)c(=O)c(C(=O)O)cn4C3CC3)CC2)sc1C(=O)/C=C/c1ccc([N+](=O)[O-])cc1 [Compound 4h] ?
85.9

// repeat for Cc1nc(SCC(=O)N2CCN(c3cc4c(cc3F)c(=O)c(C(=O)O)cn4C3CC3)CC2)sc1C(=O)/C=C/c1ccc(F)cc1 [Compound 4e] and report
96.6

====

activity at 10 µM values by entry
System: COLO 205
Experiment: NCI-60 screening, one-dose (10 µM) and five-dose, SRB
Type: cell-based, human
Settings: Homo sapiens; 10 μM; COLO 205, Colon Cancer; read-out: Growth percentage

[
  {
    "compound": "Cc1nc(SCC(=O)N2CCN(c3cc4c(cc3F)c(=O)c(C(=O)O)cn4C3CC3)CC2)sc1C(=O)/C=C/c1ccc(F)cc1 [Compound 4e]",
    "activity at 10 µM": "119%"
  }
]

Fill in: activity at 10 µM of Cc1nc(SCC(=O)N2CCN(c3cc4c(cc3F)c(=O)c(C(=O)O)cn4C3CC3)CC2)sc1C(=O)/C=C/c1ccc(N(C)C)cc1 [Compound 4i] is ___
117%

====

Test system: SN12C
Test: NCI-60 screening, one-dose (10 µM) and five-dose, SRB
Assay type: cell-based, human
Conditions: Homo sapiens, five-dose
# key: entry, value: IC50

[
  {
    "compound": "Cc1nc(SCC(=O)N2CCN(c3cc4c(cc3F)c(=O)c(C(=O)O)cn4C3CC3)CC2)sc1C(=O)/C=C/c1cccc(F)c1 [Compound 4d]",
    "tested target": "SN12C",
    "IC50": "> 100 µM"
  }
]

Then there is this compound:
// query IC50 value for entry Cc1nc(SCC(=O)N2CCN(c3cc4c(cc3F)c(=O)c(C(=O)O)cn4C3CC3)CC2)sc1C(=O)/C=C/c1cccc(Cl)c1 [Compound 4b]
> 100 µM

====

Tested on: SK-MEL-28
Assay: NCI-60 screening, one-dose (10 µM) and five-dose, SRB
Type: cell-based, human
Conditions: Homo sapiens; 10 μM; SK-MEL-28, Melanoma; read-out: Growth percentage
property measured: activity at 10 µM (%)
Hi! Could you send only the number? It should be in %, unit omitted.

[
  {
    "molecule smiles": "Cc1nc(SCC(=O)N2CCN(c3cc4c(cc3F)c(=O)c(C(=O)O)cn4C3CC3)CC2)sc1C(=O)/C=C/c1cccc([N+](=O)[O-])c1",
    "tested target": "SK-MEL-28",
    "value unit": "%",
    "activity at 10 µM": 80.8
  },
  {
    "molecule smiles": "Cc1nc(SCC(=O)N2CCN(c3cc4c(cc3F)c(=O)c(C(=O)O)cn4C3CC3)CC2)sc1C(=O)/C=C/c1ccc(Cl)cc1",
    "tested target": "SK-MEL-28",
    "value unit": "%",
    "activity at 10 µM": 100
  },
  {
    "molecule smiles": "COc1ccc(/C=C/C(=O)c2sc(SCC(=O)N3CCN(c4cc5c(cc4F)c(=O)c(C(=O)O)cn5C4CC4)CC3)nc2C)cc1",
    "tested target": "SK-MEL-28",
    "value unit": "%",
    "activity at 10 µM": 114
  },
  {
    "molecule smiles": "CC(=O)c1sc(SCC(=O)N2CCN(c3cc4c(cc3F)c(=O)c(C(=O)O)cn4C3CC3)CC2)nc1C",
    "tested target": "SK-MEL-28",
    "value unit": "%",
    "activity at 10 µM": 96.7
  }
]

Need activity at 10 µM of Cc1nc(SCC(=O)N2CCN(c3cc4c(cc3F)c(=O)c(C(=O)O)cn4C3CC3)CC2)sc1C(=O)/C=C/c1ccc(N(C)C)cc1 , thanks.
95.9

====

System: U251
Experiment: NCI-60 screening, one-dose (10 µM) and five-dose, SRB
Type: cell-based, human
Settings: Homo sapiens, U-251; 10 μM; U251, CNS Cancer; read-out: Growth percentage
Let's look at some molecules and their measured activity at 10 µM.

[
  {
    "molecule smiles": "Cc1nc(SCC(=O)N2CCN(c3cc4c(cc3F)c(=O)c(C(=O)O)cn4C3CC3)CC2)sc1C(=O)/C=C/c1cccc(F)c1",
    "result": "-7.6%"
  },
  {
    "molecule smiles": "COc1ccc(/C=C/C(=O)c2sc(SCC(=O)N3CCN(c4cc5c(cc4F)c(=O)c(C(=O)O)cn5C4CC4)CC3)nc2C)cc1",
    "result": "107%"
  },
  {
    "molecule smiles": "Cc1nc(SCC(=O)N2CCN(c3cc4c(cc3F)c(=O)c(C(=O)O)cn4C3CC3)CC2)sc1C(=O)/C=C/c1cccc(Cl)c1",
    "result": "41.9%"
  },
  {
    "molecule smiles": "COc1cccc(/C=C/C(=O)c2sc(SCC(=O)N3CCN(c4cc5c(cc4F)c(=O)c(C(=O)O)cn5C4CC4)CC3)nc2C)c1OC",
    "result": "103%"
  }
]

Note: attention shifts to another entry.
GET /values?readout=activity at 10 µM&item= Cc1nc(SCC(=O)N2CCN(c3cc4c(cc3F)c(=O)c(C(=O)O)cn4C3CC3)CC2)sc1C(=O)/C=C/c1ccc(N(C)C)cc1
48%

====

Test system: KM12
Assay: NCI-60 screening, one-dose (10 µM) and five-dose, SRB
Type: cell-based, human
Conditions: Homo sapiens, KM12, 10 μM; KM12, Colon Cancer; read-out: Growth percentage
property measured: activity at 10 µM (%)
# number only, unit % dropped from output

Worked cases, answers included:
[
  {
    "molecule smiles": "Cc1nc(SCC(=O)N2CCN(c3cc4c(cc3F)c(=O)c(C(=O)O)cn4C3CC3)CC2)sc1C(=O)/C=C/c1ccc([N+](=O)[O-])cc1",
    "tested target": "KM12",
    "activity at 10 µM / %": 54.4
  },
  {
    "molecule smiles": "Cc1nc(SCC(=O)N2CCN(c3cc4c(cc3F)c(=O)c(C(=O)O)cn4C3CC3)CC2)sc1C(=O)/C=C/c1ccc(N(C)C)cc1",
    "tested target": "KM12",
    "activity at 10 µM / %": 79.4
  },
  {
    "molecule smiles": "COc1cccc(/C=C/C(=O)c2sc(SCC(=O)N3CCN(c4cc5c(cc4F)c(=O)c(C(=O)O)cn5C4CC4)CC3)nc2C)c1OC",
    "tested target": "KM12",
    "activity at 10 µM / %": 4.4
  },
  {
    "molecule smiles": "Cc1nc(SCC(=O)N2CCN(c3cc4c(cc3F)c(=O)c(C(=O)O)cn4C3CC3)CC2)sc1C(=O)/C=C/c1ccc(Cl)cc1",
    "tested target": "KM12",
    "activity at 10 µM / %": 104
  },
  {
    "molecule smiles": "CC(=O)c1sc(SCC(=O)N2CCN(c3cc4c(cc3F)c(=O)c(C(=O)O)cn4C3CC3)CC2)nc1C",
    "tested target": "KM12",
    "activity at 10 µM / %": 102
  }
]

API: value(readout=activity at 10 µM, system=KM12) for record Cc1nc(SCC(=O)N2CCN(c3cc4c(cc3F)c(=O)c(C(=O)O)cn4C3CC3)CC2)sc1C(=O)/C=C/c1ccc(F)cc1
97.3

Then this compound: Cc1nc(SCC(=O)N2CCN(c3cc4c(cc3F)c(=O)c(C(=O)O)cn4C3CC3)CC2)sc1C(=O)/C=C/c1ccc(Br)cc1
108

Let us now turn to Cc1nc(SCC(=O)N2CCN(c3cc4c(cc3F)c(=O)c(C(=O)O)cn4C3CC3)CC2)sc1C(=O)/C=C/c1cccc([N+](=O)[O-])c1
21.7

Same read-out for COc1ccc(/C=C/C(=O)c2sc(SCC(=O)N3CCN(c4cc5c(cc4F)c(=O)c(C(=O)O)cn5C4CC4)CC3)nc2C)cc1 ?
112
